Reference for the values: paper PMC2756588

- STUDY_SYSTEM: T1, Boi1, P38041
- T1 sequence (P38041 1-86, looked up): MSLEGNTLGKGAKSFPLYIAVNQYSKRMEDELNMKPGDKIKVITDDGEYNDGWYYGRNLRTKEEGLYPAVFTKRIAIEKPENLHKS
- ASSAY_PROCEDURE: SPOT array
- CONDITIONS_USED: median of control spots 1162
Strictly below 4 in SPOT intensity: TRUE. Otherwise: FALSE.

Query string: Threshold test, SPOT intensity < 4: `MFLISPPASPPPEFD`
Result string: TRUE

Query string: Can you check `NSVPIMPTLPPRPYI` next?
Result string: TRUE
